Every entry's value here was drawn from patent US20190352420A1.

Biological target: T1, recombinant human CD73 protein (human, UniProt P21589 27-549, limits assumed)
T1 sequence (looked up): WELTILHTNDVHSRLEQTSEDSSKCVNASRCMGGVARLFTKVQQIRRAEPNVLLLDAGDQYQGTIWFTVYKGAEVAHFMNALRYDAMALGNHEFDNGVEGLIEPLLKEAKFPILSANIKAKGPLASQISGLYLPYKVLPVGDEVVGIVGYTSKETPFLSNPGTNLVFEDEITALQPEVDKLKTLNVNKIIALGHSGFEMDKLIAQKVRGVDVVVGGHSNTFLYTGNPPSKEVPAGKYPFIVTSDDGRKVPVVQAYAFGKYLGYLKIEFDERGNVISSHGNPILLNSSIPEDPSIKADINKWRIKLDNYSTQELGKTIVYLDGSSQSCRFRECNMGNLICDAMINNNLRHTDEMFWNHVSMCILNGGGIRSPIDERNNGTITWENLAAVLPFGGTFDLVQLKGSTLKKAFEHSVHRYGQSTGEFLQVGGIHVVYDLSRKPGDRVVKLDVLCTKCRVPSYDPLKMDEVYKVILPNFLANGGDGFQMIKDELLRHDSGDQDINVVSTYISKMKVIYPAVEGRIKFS
Experiment: cell-based or functional assay
For each record, write down the corresponding IC90 of inhibition of CD73 enzymatic function (luciferase-based assay).
Response body: numeric value in nM, unit text excluded.

Note to self: IC90 of inhibition of CD73 enzymatic function (luciferase-based assay) recorded for C3 (antibody, human IgG1, kappa, L234A L235A, V domains shown, Humanized monoclonal antibody; also called anti-CD73 antibody C3) VH: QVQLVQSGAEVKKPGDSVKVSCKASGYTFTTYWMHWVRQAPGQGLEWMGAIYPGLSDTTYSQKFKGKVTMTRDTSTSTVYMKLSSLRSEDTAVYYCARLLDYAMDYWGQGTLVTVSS VL: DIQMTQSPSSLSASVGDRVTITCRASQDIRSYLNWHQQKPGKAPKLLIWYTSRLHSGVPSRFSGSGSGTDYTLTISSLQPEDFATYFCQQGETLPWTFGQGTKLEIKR was 0.32

Note to self: IC90 of inhibition of CD73 enzymatic function (luciferase-based assay) recorded for C1 (antibody, human IgG1, kappa, L234A L235A, V domains shown, Humanized monoclonal antibody; also called anti-CD73 antibody C1) VH: QVQLVQSGAEVKKPGDSVKVSCKASGYTFTTYWMHWVRQAPGQGLEWMGAIYPGFSDTTYSQKFKGKVTMTRDTSTSTVYMKLSSLRSEDTAVYYCARLLDYAMDYWGQGTLVTVSS VL: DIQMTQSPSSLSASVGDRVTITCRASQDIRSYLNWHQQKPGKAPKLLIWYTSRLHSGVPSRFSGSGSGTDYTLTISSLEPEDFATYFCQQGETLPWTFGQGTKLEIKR was 0.49

Note to self: IC90 of inhibition of CD73 enzymatic function (luciferase-based assay) recorded for C4 (antibody, human IgG1, kappa, L234A L235A, V domains shown, Humanized monoclonal antibody; also called C04; inventive anti-CD73 antibody C4) VH: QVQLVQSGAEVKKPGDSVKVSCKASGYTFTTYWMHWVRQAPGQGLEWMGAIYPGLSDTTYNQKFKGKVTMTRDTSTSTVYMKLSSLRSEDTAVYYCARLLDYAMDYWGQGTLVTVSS VL: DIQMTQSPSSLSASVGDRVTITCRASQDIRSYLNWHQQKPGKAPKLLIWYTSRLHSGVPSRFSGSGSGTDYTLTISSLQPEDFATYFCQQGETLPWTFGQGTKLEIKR was 0.24
